# System: Agrobacterium β-glucosidase (Agrobacterium sp., UniProt P12614)
# Sequence (P12614 1-459): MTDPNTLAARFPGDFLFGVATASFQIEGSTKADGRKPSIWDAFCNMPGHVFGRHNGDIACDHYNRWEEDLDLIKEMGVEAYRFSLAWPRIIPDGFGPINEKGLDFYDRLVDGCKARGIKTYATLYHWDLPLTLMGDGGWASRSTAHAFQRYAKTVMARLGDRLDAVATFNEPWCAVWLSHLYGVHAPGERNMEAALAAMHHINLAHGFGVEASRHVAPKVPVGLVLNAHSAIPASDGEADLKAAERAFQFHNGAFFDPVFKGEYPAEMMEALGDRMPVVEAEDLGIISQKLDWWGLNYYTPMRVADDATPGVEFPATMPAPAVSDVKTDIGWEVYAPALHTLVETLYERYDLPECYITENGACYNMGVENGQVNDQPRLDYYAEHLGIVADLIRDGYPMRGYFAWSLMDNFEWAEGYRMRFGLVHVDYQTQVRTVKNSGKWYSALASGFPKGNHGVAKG
Measured attribute: pIC50
The meaning of pIC50 here: minus log10 of the concentration in molar units.

State its pIC50 for this compound: O=C(/C=C/c1ccc(O)c(O)c1)N[C@@H](Cc1ccc(O)cc1)C(=O)NCCCOc1c(-c2ccc(O)c(O)c2)oc2cc(O)cc(O)c2c1=O [M10] 4.45

---

# System: Green coffee bean α-galactosidase (Coffea arabica, UniProt Q42656)
# Sequence (Q42656 16-378): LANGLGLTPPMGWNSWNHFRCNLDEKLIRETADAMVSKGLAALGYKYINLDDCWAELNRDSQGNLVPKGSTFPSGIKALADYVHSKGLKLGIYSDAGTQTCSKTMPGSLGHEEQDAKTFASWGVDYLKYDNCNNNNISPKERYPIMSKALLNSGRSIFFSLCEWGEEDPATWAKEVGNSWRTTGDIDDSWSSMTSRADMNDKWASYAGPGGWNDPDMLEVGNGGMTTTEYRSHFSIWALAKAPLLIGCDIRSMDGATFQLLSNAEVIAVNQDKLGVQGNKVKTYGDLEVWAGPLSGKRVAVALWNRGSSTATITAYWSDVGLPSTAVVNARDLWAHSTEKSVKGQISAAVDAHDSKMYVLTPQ
Measured attribute: IC50

Report measured IC50 on Green coffee bean α-galactosidase (Coffea arabica, UniProt Q42656); entry: O=C(/C=C/c1ccc(O)c(O)c1)N[C@@H](Cc1ccc(O)cc1)C(=O)NCCCOc1c(-c2ccc(O)c(O)c2)oc2cc(O)cc(O)c2c1=O [M10] > 7 µM

---

# System: Jack bean α-mannosidase (Canavalia ensiformis)
# Sequence (C0HJB3 whole entry): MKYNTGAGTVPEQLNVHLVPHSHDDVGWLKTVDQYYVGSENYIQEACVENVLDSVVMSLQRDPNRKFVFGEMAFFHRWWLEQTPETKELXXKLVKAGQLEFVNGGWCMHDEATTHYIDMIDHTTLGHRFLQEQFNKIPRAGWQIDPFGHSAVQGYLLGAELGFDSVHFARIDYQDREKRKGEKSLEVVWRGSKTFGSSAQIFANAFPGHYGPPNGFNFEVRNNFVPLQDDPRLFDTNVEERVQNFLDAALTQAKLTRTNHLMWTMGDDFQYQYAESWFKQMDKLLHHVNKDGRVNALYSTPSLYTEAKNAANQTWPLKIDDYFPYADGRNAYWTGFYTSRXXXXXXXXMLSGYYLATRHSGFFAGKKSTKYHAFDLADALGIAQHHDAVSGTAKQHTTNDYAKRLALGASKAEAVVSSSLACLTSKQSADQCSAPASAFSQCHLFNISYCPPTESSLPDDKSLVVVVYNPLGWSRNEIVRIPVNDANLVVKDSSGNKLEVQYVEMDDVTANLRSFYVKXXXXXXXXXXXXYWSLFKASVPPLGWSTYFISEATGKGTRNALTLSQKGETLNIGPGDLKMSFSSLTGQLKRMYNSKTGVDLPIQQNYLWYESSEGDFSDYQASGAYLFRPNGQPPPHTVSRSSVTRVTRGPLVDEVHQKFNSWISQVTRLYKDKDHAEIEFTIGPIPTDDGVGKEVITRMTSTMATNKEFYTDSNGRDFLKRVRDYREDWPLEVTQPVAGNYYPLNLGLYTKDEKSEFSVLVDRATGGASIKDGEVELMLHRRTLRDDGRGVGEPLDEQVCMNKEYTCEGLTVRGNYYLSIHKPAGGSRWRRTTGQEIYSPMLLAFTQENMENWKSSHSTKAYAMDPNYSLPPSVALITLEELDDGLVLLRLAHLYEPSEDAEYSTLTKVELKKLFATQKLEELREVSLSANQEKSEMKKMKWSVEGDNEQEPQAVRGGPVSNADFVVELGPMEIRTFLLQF
Measured attribute: IC50

State its IC50 for this molecule: O=C(/C=C/c1ccc(O)c(O)c1)N[C@@H](Cc1ccc(O)cc1)C(=O)NCCCOc1c(-c2ccc(O)c(O)c2)oc2cc(O)cc(O)c2c1=O > 7 µM

---

# System: Homo sapiens maltase-glucoamylase (Homo sapiens)
Measured attribute: IC50

Report measured IC50 on Homo sapiens maltase-glucoamylase (Homo sapiens); entry: O=C(/C=C/c1ccc(O)c(O)c1)N[C@@H](Cc1ccc(O)cc1)C(=O)NCCCOc1c(-c2ccc(O)c(O)c2)oc2cc(O)cc(O)c2c1=O > 7 µM

---

Target sequence: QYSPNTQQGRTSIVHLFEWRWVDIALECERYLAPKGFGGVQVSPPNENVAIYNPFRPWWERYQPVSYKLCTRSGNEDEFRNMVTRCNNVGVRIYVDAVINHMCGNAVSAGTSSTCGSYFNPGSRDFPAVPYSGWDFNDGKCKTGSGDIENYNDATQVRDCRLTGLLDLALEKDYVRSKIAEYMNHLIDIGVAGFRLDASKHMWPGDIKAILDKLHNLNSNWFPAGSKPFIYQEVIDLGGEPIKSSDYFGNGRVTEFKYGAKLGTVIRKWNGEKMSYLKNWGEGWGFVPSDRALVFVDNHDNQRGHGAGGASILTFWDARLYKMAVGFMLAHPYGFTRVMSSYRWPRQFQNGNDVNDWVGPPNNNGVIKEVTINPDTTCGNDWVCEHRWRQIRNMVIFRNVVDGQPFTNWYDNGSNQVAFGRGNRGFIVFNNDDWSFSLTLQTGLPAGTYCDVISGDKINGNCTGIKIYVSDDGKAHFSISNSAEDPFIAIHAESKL
Measured attribute: Ki (µM)
Answer in µM, number only, no unit symbol.

Known results for molecules:
{"Molecule": "O=C(/C=C/c1ccc(O)c(O)c1)N[C@@H](Cc1ccc(O)c(O)c1)C(=O)NCCCOc1c(-c2ccc(O)c(O)c2)oc2cc(O)cc(O)c2c1=O [M11]", "Value": 0.06}
{"Molecule": "O=C(/C=C/c1ccc(O)c(O)c1)NCCCOc1c(-c2ccc(O)c(O)c2)oc2cc(O)cc(O)c2c1=O [M03]", "Value": 110}

Here is another molecule to look at.
State its Ki for this molecule: O=C(/C=C/c1ccc(O)c(O)c1)NCC(=O)NCCCOc1c(-c2ccc(O)c(O)c2)oc2cc(O)cc(O)c2c1=O [M05] 60
